Ref: patent EP0118571A1

Tested System: bovine lens AR (BLAR) (Bos taurus)
Construct: BLAR and RLAR were purified according to the method of Inagaki et al; from tissue; host or cells: bovine lens
Assay Name: Aldose reductase (AR) activity assay, bovine lens AR (NADPH oxidation, DL-glyceraldehyde substrate)
Assay type: biochemical
Condition Parameters: inhibitor 10^-5M; 30°C, pH 6.2, 1 % propylene glycol; read-out: Inhibition against enzyme activity (%) BLAR 10^-5M
Overview of reported inhibition at 10 µM across a group of compounds:
Report the figure in % without appending any unit label.

C[C@@H]1O[C@@H](Oc2c(-c3ccc(O)c(O)c3)oc3cc(O)cc(O)c3c2=O)[C@H](O)[C@H](O)[C@H]1O
66
COc1c(OC)c(OC)c2c(=O)cc(-c3ccc(O)c(O)c3)oc2c1OC
100

With bovine lens AR (BLAR) (Bos taurus) as the test system, COc1cc(-c2cc(=O)c3c(OC)c(O)c(OC)c(OC)c3o2)ccc1O showed inhibition at 10 µM of 63

Known value: bovine lens AR (BLAR) (Bos taurus) inhibition at 10 µM of the compound COc1cc(-c2cc(=O)c3c(O)c(OC)c(OC)c(OC)c3o2)ccc1O equals 56
